# assay system: ACE2-RBD interaction (human ACE2 / SARS-CoV-2 S protein RBD) (Severe acute respiratory syndrome coronavirus 2)
# test method notes: biochemical
measure name: pIC50
The value called pIC50 is obtained by taking minus log10 of the concentration in mol/L.

Take a look at these entries with their results.
* O=C(O)c1cc(O)c2cc(O)ccc2n1 [Compound 1, 4,6-dihydroxyquinoline-2-carboxylic acid] | 6.24
* O=C(O)c1cc(O)c2ccccc2n1 [Compound 2, 4-hydroxyquinoline-2-carboxylic acid] | 7.15

Return reported pIC50; argument: COc1ccc2nc(C(=O)O)cc(O)c2c1
6.82

The measured values listed here are drawn from paper PMC8178536.
